# assayComment: in vivo
quantityName: level at time molar

In one line, give reported level at time molar of the entry CC(C)C[C@@H](NC(=O)c1ccc(O)cc1)C(=O)N[C@@H](C(=O)N[C@H](Cc1ccccc1)C(=O)N[C@H](Cc1ccccc1)C(=O)N[C@H](C)C(N)=O)C(C)C .
< 5 nM

###

# assayComment: in vivo
# reportedConditions: male, Sprague-Dawley, rat
quantityName: level at time molar at 0.5 h

In one line, give reported level at time molar at 0.5 h of the entry CC(C)C[C@@H](NC(=O)c1ccc(O)cc1)C(=O)N[C@@H](C(=O)N[C@H](Cc1ccccc1)C(=O)N[C@H](Cc1ccccc1)C(=O)N[C@H](C)C(N)=O)C(C)C [PPI-558] .
> 0.1 µM

###

# assayComment: physchem
Non-standard residues stand in square brackets, D forms with d. Residues, ends and D or L forms follow the SMILES beside them. *: point of attachment. X1 = CC(C)C[C@H](C(=O)*)N(C)C
quantityName: log10 of solubility (log10 of the value in µg/mL)
// stored as log10 of solubility expressed in µg/mL

In one line, give reported log10 of solubility of the entry CC(C)C[C@@H](N)C(=O)N[C@@H](C(=O)N[C@H](Cc1ccccc1)C(=O)N[C@H](Cc1ccccc1)C(=O)N[C@@H](C(N)=O)C(C)C)C(C)C [PPI-657, H-D-Leu-D-Val-D-Phe-D-Phe-D-Val-NH2] (H-[dL][dV][dF][dF][dV]-NH2) .
2.99

In one line, give reported log10 of solubility of the entry CC(C)C[C@@H](NC(=O)c1ccc(O)cc1)C(=O)N[C@@H](C(=O)N[C@H](Cc1ccccc1)C(=O)N[C@H](Cc1ccccc1)C(=O)N[C@H](C)C(N)=O)C(C)C .
0.00

In one line, give reported log10 of solubility of the entry CC(C)C[C@@H](N)C(=O)N[C@H](Cc1ccccc1)C(=O)N[C@H](Cc1ccccc1)C(=O)N[C@@H](C(=O)N[C@H](CC(C)C)C(N)=O)C(C)C .
3.40

In one line, give reported log10 of solubility of the entry CN[C@H](CC(C)C)C(=O)N[C@@H](C(=O)N[C@H](Cc1ccccc1)C(=O)N[C@H](Cc1ccccc1)C(=O)N[C@H](CC(C)C)C(N)=O)C(C)C .
3.00

In one line, give reported log10 of solubility of the entry CC(C)C[C@@H](N)C(=O)N[C@@H](C(=O)N[C@H](Cc1ccccc1)C(=O)N[C@H](Cc1ccccc1)C(=O)N[C@H](C)C(N)=O)C(C)C .
3.17

In one line, give reported log10 of solubility of the entry CC(C)C[C@H](C(=O)N[C@@H](C(=O)N[C@H](Cc1ccccc1)C(=O)N[C@H](Cc1ccccc1)C(=O)N[C@H](CC(C)C)C(N)=O)C(C)C)N(C)C [PPI-1007, (CH3)2-lvffl-NH2] (X1-[dV][dF][dF][dL]-NH2) .
2.26

In one line, give reported log10 of solubility of the entry CC(C)C[C@@H](N)C(=O)N[C@@H](C(=O)N[C@H](Cc1ccccc1)C(=O)NNC(=O)[C@@H](Cc1ccccc1)NC(=O)[C@H](NC(=O)[C@H](N)CC(C)C)C(C)C)C(C)C .
3.70

Provenance of the data: patent US20050288222A1
